Subject of test: UniProt:Q63470
Type: biochemical, Homo sapiens
Active and inactive are the calls of the source.
Entries and their measured AC50 follow.

* C[C@@H]1O[C@@H](OC[C@H]2O[C@@H](Oc3c(-c4ccc(O)cc4)oc4cc(O)cc(O)c4c3=O)[C@H](O)[C@@H](O)[C@@H]2O)[C@H](O)[C@H](O)[C@H]1O [NICOTIFLOROSIDE] | 7.78 µM (active)
* COc1cc(/C=N/N2C(=O)CSC2=S)ccc1O | 9.55 µM (active)
* CC(=O)O[C@H](COc1c2ccoc2cc2oc(=O)ccc12)C(C)(C)O | 3.74 µM (active)
* Nc1nn2c(O)cc(-c3ccccc3)nc2c1N=Nc1ccc(S(N)(=O)=O)cc1 | 1.3 µM (active)

The record that follows has no AC50 shown yet.
Using the record for `O=C(O)c1cccc(-c2ccc(/C=N/Nc3ccc([N+](=O)[O-])cc3)o2)c1` , state its measured AC50. 6.38 µM (active)

###

Subject of test: 26S proteasome non-ATPase regulatory subunit 14 (Homo sapiens, UniProt O00487)
Sequence (O00487 whole entry): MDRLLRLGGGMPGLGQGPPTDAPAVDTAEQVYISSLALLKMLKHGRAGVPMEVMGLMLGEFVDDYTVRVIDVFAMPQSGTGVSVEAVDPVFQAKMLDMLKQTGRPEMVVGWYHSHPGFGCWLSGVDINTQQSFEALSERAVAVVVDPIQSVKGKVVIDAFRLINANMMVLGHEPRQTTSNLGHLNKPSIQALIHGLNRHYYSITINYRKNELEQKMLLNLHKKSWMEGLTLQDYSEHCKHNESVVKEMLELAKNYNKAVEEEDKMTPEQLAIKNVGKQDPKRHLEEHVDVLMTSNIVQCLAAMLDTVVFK
Test: inhibition of proteasome subunit RPN11 – biochemical, fluorescence polarization, uHTS hits, confirmation (AID 602368)
Assay type: functional
Activity calls are given as the source filed them.
Assay metric: IC50

Solved entries:
• O=C(Nc1nc(-c2nc3ccccc3s2)cs1)c1ccco1 = 10.1 µM (active)
• O=C(CCN1C(=O)/C(=C\c2cccs2)SC1=S)Nc1ccccn1 = 9.93 µM (active)
• O=C(NN=C1c2ccccc2-c2ccccc21)c1ccccn1 = 24.4 µM (active)

Turning now to a further compound:
// Input: `O=C1NC(=S)N(C2CCCCC2)C(=O)/C1=C/NNC(=O)c1ccccc1O` . Output its IC50 only. 36.7 µM (active)

###

Subject of test: Sentrin-specific protease 6 (Homo sapiens, UniProt Q9GZR1)
Sequence (Q9GZR1 whole entry): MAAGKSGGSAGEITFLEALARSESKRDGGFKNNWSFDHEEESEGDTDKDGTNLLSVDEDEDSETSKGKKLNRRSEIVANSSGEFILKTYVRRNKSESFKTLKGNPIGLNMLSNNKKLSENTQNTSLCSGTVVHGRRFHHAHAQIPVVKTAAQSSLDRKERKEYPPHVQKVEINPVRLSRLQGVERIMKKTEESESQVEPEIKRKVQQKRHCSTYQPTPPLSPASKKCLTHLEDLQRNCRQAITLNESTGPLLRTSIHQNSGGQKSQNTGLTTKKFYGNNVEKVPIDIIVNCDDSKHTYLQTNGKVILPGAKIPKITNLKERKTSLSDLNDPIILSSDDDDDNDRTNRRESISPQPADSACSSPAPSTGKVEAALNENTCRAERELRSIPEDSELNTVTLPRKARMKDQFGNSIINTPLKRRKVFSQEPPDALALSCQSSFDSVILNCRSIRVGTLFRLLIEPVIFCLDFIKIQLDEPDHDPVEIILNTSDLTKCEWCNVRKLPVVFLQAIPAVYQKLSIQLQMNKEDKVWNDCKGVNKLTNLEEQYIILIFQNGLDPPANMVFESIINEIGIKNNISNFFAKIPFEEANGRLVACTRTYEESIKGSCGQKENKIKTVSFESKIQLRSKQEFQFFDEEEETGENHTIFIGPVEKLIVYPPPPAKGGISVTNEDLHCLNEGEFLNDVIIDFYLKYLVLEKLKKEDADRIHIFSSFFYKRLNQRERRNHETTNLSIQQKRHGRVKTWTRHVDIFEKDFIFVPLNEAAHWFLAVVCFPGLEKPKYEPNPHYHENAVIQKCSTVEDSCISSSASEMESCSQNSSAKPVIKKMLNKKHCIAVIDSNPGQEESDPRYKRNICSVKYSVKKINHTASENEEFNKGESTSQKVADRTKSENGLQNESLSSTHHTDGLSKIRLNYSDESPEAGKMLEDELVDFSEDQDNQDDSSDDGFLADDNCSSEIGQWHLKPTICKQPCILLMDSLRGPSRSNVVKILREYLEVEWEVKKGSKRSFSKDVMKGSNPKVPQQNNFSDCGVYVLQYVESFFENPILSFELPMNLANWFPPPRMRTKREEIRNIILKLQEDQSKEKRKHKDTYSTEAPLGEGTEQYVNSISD
Assay type: functional
Active and inactive are the calls of the source.
Assay metric: IC50

// worked examples, IC50 included
• COc1ccc2nc(Nc3nc4cc5c(cc4s3)OCCO5)sc2c1 = 66.6 µM (active)
• O=C(COC(=O)c1ccc([N+](=O)[O-])s1)Nc1ncc(C(F)(F)F)cc1Cl = 5.68 µM (active)
• O=S(=O)(Nc1ccc(-c2nc3cccnc3s2)cc1)c1ccc(Cl)s1 = 25 µM (active)
• Brc1ccc(-c2cnc(-c3cccs3)o2)cc1 = 15 µM (active)
• Cc1c(NC(=O)c2ccc(NC(=O)C3CC3)cc2)cccc1C(=O)O = 18.5 µM (active)

State its IC50: `CCN(c1ccccc1)c1cc2ccccc2c(=O)[nH]1` 2.21 µM (active)

Give recorded IC50. `CN1C(=O)S/C(=C/c2ccc(OCc3cccc(C(=O)O)c3)cc2)C1=O` 4.42 µM (active)

Consider the compound `O=C(NC1(O)C(=O)c2ccccc2C1=O)c1ccc(C(F)(F)F)cc1` and give its recorded IC50. 2.66 µM (active)

Please list IC50 recorded for the compound `Cc1ccc2oc(-c3ccco3)nc2c1` 21.3 µM (active)

Let me know recorded IC50 for `O=C(NC1(O)C(=O)c2ccccc2C1=O)c1c(Cl)cccc1Cl` , thanks. 3.53 µM (active)

###

Subject of test: Peroxisome proliferator-activated receptor gamma/Nuclear receptor coactivator 3 (Homo sapiens)
Sequence (P37231 whole entry): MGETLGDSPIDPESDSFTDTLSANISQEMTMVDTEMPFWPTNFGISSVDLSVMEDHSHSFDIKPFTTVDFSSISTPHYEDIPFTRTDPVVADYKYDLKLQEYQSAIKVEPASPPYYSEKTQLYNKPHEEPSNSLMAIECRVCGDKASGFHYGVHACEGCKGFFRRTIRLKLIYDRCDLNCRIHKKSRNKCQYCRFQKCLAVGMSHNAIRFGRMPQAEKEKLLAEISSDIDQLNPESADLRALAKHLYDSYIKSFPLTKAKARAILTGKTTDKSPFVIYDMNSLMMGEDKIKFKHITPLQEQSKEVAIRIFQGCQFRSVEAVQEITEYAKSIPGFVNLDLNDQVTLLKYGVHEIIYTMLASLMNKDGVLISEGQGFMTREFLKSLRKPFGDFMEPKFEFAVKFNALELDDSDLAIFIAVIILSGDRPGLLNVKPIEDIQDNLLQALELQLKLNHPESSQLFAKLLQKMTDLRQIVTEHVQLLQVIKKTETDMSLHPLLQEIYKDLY
Sequence (Q9Y6Q9 whole entry, further chain): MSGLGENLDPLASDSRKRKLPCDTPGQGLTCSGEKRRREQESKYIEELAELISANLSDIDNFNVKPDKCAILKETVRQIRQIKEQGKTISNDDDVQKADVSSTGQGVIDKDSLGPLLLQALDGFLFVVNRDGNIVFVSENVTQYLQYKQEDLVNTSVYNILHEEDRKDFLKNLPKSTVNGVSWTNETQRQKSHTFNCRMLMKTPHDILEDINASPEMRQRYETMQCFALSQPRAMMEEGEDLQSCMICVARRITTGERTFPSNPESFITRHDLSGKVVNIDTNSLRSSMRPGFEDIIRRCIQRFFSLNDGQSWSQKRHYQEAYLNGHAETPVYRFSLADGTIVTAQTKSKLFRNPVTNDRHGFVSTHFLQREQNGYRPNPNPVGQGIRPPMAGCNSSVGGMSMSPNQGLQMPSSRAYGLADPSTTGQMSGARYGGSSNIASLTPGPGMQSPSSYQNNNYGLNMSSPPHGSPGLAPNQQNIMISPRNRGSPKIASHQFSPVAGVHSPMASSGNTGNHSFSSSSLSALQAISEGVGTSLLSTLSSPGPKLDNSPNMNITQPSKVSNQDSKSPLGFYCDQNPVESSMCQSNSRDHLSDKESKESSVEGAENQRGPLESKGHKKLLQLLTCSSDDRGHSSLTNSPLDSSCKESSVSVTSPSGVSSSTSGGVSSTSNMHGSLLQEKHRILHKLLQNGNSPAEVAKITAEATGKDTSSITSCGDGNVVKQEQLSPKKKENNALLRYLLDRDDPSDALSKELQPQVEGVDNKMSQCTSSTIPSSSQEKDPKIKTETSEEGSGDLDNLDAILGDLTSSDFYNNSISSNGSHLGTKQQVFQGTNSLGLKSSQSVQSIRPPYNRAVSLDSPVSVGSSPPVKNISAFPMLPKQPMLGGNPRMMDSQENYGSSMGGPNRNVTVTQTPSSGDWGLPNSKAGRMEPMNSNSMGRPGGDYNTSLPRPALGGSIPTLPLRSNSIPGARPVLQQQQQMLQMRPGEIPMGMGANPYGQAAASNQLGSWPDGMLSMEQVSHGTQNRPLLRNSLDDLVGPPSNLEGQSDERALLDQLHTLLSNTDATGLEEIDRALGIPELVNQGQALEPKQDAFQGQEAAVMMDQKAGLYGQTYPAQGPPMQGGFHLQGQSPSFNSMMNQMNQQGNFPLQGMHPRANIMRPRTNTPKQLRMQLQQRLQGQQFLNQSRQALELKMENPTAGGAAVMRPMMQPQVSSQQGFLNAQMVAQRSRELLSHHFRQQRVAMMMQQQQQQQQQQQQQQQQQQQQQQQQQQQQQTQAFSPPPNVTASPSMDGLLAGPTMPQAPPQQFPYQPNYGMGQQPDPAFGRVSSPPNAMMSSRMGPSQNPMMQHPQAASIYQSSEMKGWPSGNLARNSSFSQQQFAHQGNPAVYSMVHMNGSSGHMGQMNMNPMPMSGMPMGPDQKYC
Format: functional
Assay metric: EC50

• COC(=O)c1ccccc1NC(=O)c1cc(-c2ccc(O)cc2)on1 = 33.6 µM (not active)
• O=C(CSc1ccc(Br)c2cccc(Cl)c12)Nc1ccc(S(=O)(=O)Nc2nccs2)cc1 = 84.2 µM (not active)
• COc1ccc(OCC(=O)Nc2cc(-c3nn(C)c(=O)c4ccccc34)ccc2OC)cc1 = 76.6 µM (not active)

Please report the measured EC50 for `Cc1ccc(NC(=O)c2sc3ccccc3c2Cl)nc1` 52 µM (not active)

###

IC50: recorded values
Subject of test: High affinity choline transporter 1 (Homo sapiens, UniProt Q9GZV3)
Sequence (Q9GZV3 whole entry): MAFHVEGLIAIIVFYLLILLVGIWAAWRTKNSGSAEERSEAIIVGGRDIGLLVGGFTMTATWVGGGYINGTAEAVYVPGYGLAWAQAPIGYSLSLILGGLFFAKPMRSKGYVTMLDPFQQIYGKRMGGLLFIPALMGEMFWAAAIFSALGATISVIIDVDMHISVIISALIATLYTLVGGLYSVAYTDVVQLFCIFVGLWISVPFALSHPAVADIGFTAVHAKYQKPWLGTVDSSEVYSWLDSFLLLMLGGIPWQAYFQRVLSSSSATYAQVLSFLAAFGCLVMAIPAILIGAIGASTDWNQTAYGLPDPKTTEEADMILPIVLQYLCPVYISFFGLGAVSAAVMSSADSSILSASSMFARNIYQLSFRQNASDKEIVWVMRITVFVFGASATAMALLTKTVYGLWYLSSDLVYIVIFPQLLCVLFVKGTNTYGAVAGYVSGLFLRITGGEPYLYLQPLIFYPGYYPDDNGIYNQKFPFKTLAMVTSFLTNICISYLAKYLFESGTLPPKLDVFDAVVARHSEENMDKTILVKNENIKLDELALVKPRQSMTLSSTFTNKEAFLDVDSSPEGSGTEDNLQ
Test: CHT inhibitors, dose response, cell-based, 5-point CRC, membrane potential dye (AID 504840)
Type: functional
Active and inactive are the calls of the source.

Find IC50 for O=C(O)CC1=C(Nc2ccccc2)C(=O)N(c2ccccc2)C1c1ccc(Cl)cc1 (stereo unspecified) on High affinity choline transporter 1 (Homo sapiens, UniProt Q9GZV3) and write it down. 8.1 µM (active)

Report value: IC50, system: High affinity choline transporter 1 (Homo sapiens, UniProt Q9GZV3), compound: CC(NC(=O)c1ccc(F)cc1)c1ccc2c(c1)CCCC2 (stereo unspecified) 20.9 µM (active)

Give IC50; test system High affinity choline transporter 1 (Homo sapiens, UniProt Q9GZV3); compound `CCn1c(SCc2nc(-c3ccc(OC)c(OC)c3)no2)nnc1-c1cccs1` 11.2 µM (active)

Check High affinity choline transporter 1 (Homo sapiens, UniProt Q9GZV3) data and give IC50 for CCOC(=O)c1cc(C(=O)NC(C)c2ccccc2)c(O)nc1C (stereo unspecified) . 0.798 µM (active)

GET IC50 where system = High affinity choline transporter 1 (Homo sapiens, UniProt Q9GZV3) and item = `Oc1c(Br)cc(Br)cc1/C=N/c1cccc2ncccc12` 4.19 µM (active)

Name the value of IC50 reported for `Cc1cnc(C)c(N2CCN(Cc3nc(-c4cccc(F)c4F)oc3C)CC2)n1` when tested on High affinity choline transporter 1 (Homo sapiens, UniProt Q9GZV3). 15.1 µM (active)

###

Subject of test: Short transient receptor potential channel 4 (Mus musculus)
Sequence (Q9QUQ5 whole entry): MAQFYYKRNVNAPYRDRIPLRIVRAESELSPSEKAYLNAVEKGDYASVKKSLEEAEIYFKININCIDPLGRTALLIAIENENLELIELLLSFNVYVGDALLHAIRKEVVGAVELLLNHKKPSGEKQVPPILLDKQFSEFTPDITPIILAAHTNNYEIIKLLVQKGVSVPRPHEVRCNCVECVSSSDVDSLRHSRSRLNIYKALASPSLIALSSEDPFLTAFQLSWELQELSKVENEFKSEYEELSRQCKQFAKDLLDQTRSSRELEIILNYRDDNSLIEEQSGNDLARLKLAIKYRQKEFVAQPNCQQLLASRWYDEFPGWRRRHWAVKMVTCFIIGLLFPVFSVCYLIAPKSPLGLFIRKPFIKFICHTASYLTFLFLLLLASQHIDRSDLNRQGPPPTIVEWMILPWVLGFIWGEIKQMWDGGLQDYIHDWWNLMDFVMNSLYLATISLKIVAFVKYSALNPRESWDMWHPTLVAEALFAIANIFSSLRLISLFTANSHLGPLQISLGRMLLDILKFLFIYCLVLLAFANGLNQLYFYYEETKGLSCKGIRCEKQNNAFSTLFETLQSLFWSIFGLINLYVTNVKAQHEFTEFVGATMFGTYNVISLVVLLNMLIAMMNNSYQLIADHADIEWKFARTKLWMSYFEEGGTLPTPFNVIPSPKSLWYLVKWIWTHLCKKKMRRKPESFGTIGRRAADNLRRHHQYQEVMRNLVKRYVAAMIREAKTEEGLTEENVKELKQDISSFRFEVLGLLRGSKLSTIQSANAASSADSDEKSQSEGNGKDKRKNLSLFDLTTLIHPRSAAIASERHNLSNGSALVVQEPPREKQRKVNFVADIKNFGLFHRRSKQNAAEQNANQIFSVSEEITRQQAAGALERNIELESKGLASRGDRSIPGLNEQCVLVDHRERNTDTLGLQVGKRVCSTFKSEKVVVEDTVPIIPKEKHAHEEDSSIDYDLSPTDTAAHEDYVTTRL
Test: mouse TRPC4 channel inhibitors, dose response, cell-based, HEK293 TRPC4/mu-opioid, Fluo-4 calcium (AID 434942);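 also: potency of inhibitors blocking the TRPC4 calcium response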
Assay type: functional
Calls of active or inactive are those of the source.
In this section we review reported EC50 values for a set of compounds.

* CCn1c(=N)n(CC(=O)c2ccc(Br)s2)c2ccccc21 | 13.3 µM (active)
* O=c1c2ccccc2[nH]c(=S)n1CCN1CCN(Cc2ccccc2)CC1 | 4.73 µM (active)
* O=C(COC(=O)Cn1cnc2ccccc2c1=O)Nc1ccccc1Sc1ccc(Cl)cc1 | 1.88 µM (active)

// next entry
Specify measured EC50 for `Cc1oc(-c2ccoc2)nc1CN(Cc1ccccc1)CC1CC1` . 4.22 µM (active)

###

Test: inhibitors of SNCA 5'UTR-driven reporter translation, confirmation, H4 neuroglioma cells, luminescence (AID 1988)
Assay type: functional, cell-based
Calls of active or inactive are those of the source.
Assay metric: EC50

• CCN1CCN(c2cc3nc(C)n(Cc4ccccc4)c(=O)c3cc2NC(=O)c2ccccc2F)CC1 = 8.28 µM (active)
• COC(=O)c1ccc(CSc2nc(O)c3cnn(-c4ccc(C)cc4)c3n2)o1 = > 120 µM (not active)
• O=C1C2C3C=CC(C3)C2C(=O)N1/N=C/c1cn(Cc2ccccc2)c2ccccc12 (stereo not drawn) = 2.2 µM (active)
• C=CCNc1nc(NCc2ccccc2)c(C#N)c2c1CN(C)CC2 = > 120 µM (not active)
• Cc1c(C(=O)NCCCN2CCCCC2)oc2ccc3c(c12)C(O)CC1(CCCCC1)O3 (stereo not drawn) = > 120 µM (not active)

Return reported EC50. Input compound: `CCC(C)(C)n1nnnc1CN(Cc1cccs1)Cc1cc2cc(OC)ccc2nc1O` > 120 µM (not active)

Supply EC50 value. Item: `Cc1csc2ncnc(N3CCN(C(S)=Nc4ccc(C(F)(F)F)cc4)CC3)c12` > 120 µM (not active)

Tell me EC50 reported for Cc1ccc(NC(=O)C2CCC(CNc3c(N4CCC(C)CC4)c(=O)c3=O)CC2)cc1F (stereo not drawn) > 120 µM (not active)

###

Tested on: Streptococcus sp. 'group A'
Test: growth inhibition of control SK(-) GAS strain, dose response, counter-screen for streptokinase expression inhibitor project, luminescence, kanamycin, BacTiterGlo, confirmation (AID 1900)
Assay type: functional, organism-based
The source made the active and inactive calls.
Quick reference for EC50 among some compounds

Sample answers from the record:
• O=[N+]([O-])c1ccc(S(=O)(=O)Nc2ccc(-c3csc(-c4ccccc4)n3)cc2)cc1 = 3.77 µM (active)
• CCOC(=O)c1cccc(NC(=S)N2CCN(c3ncc4c(=O)c(C(=O)O)cn(CC)c4n3)CC2)c1 = 5.98 µM (active)
• CC(C(=O)NC1C(=O)N2C(C(=O)O)=C(CSc3nnnn3C)CSC12)n1cc(Br)cn1 (stereo not drawn) = 0.101 µM (active)
• Cc1ccc(OCCn2c(S)nc3ccccc32)c(C(C)C)c1 = 2.73 µM (active)
• CO[C@H]1C=CO[C@@]2(C)Oc3c(C)c(O)c4c(O)c(c5c(c4c3C2=O)=NC2(CCN(CC(C)C)CC2)N=5)NC(=O)C(C)=CC=C[C@H](C)[C@H](O)[C@@H](C)[C@@H](O)[C@@H](C)[C@H](OC(C)=O)[C@@H]1C = < 0.06 µM (active)

Tell us which EC50 value is on record for NS(=O)(=O)c1ccc(N2N=C(c3ccccc3)CC2c2ccc(F)cc2)cc1 (stereo not drawn) 6.96 µM (active)

Please give measured EC50 of the following entry: `C[N+](C)(C)c1ccc(/C=N/Nc2nc(Cl)c(C#N)c(Cl)c2Cl)cc1` > 150 µM (not active)

Output measured EC50 for this item: COc1ccc(C2/C(=C(\O)c3ccccc3)C(C)=Nc3nc4ccccc4n32)c(OC)c1 (stereo not drawn) 14.5 µM (active)
